System: T-47D breast
MEASUREMENT NOTES: NCI-60 one-dose screen, 48 h (100 = growth as untreated, 0 = no growth, -100 = all killed)
TEST CONDITIONS: 10 µM unless noted
This is part of a sample that, as a whole, favours compounds with a hit. Of some 83,000 tested, about 20% had one in any assay. Calls of active or inactive are those of the source. The calls were made as follows: active = growth percent below 10; inactive = the rest.
Recorded growth by entry

Would you please look over these solved cases?
| COMPOUND | growth |
| --- | --- |
| CC(C)(O)c1cncc(-c2ccc3ncnc(N4CCc5cc(F)c(Cl)cc54)c3c2)c1 | 4.63% (active) |
| CS(=O)(=O)c1ccc(-n2cc(/C=C/C(=O)c3ccc(NC(=O)CO[N+](=O)[O-])cc3)c(-c3ccc(Cl)cc3)n2)cc1 | 104% (inactive) |
| COc1cc2cc(Oc3ccc(NC(=O)c4cccc(C(F)(F)F)c4)cc3)c(C)nc2cc1OCCN1CCCCC1 | -25.8% (active) |

Q: Find the measured growth of C#Cc1nc(C2=C(C)C(OC(C)=O)/C(=N/OC(C)=O)C2)cs1 (centres undefined) and report it.
A: 67% (inactive)

Q: Find the measured growth of Cn1ccnc1C(=O)/C=C/c1ccc(NC(=O)Nc2ccc(F)cc2)cc1 and report it.
A: 42.8% (inactive)

Q: Find the measured growth of COc1cc(OC)c(S(=O)(=O)NNC(=O)c2ccncc2)cc1C(=O)/C=C/c1ccc(C)cc1 and report it.
A: 72.7% (inactive)

Q: Find the measured growth of Nc1ncc(-c2ccc3ncnc(N4CCc5cc(F)c(Cl)cc54)c3c2)cc1CO and report it.
A: 0.798% (active)

Q: Find the measured growth of COc1cc(/C=C/C(=O)c2ccc(C)cc2)ccc1Oc1nc(NCCO)nc(N2CCOCC2)n1 and report it.
A: 92.4% (inactive)

Q: Find the measured growth of C=CCSc1ccc2c(c1)C(N1CCNCC1)=Nc1ccccc1O2 and report it.
A: 71.3% [8.25 µM] (inactive)

###

Tested on: NCI-H226 lung
MEASUREMENT NOTES: NCI-60 one-dose screen, 48 h (100 = growth as untreated, 0 = no growth, -100 = all killed)
TEST CONDITIONS: 10 µM unless noted
About 83,000 compounds went through this panel and 20% of them were active in at least one assay; those are over-represented in the sample as a whole.
Categories are defined by ranges of growth, namely band 1 (below 50%), band 2 (50% to below 90%), band 3 (90% or more)

# example entries with known answers
| COMPOUND | CATEGORY LABEL |
| --- | --- |
| CN(C)c1ccc(/C=c2\sc3nc4ccccc4n3c2=O)cc1 | band 3 |
| Clc1ccc(Cc2nnc3sc(-c4cccnc4)nn23)cc1 | band 3 |

Q: Please classify: CCCC(=O)NC(c1ccc2c(c1)OC(F)(F)O2)c1cc(C)c2cccnc2c1O (stereo not given)
A: band 1

Q: Please classify: COc1cc2nc(-c3ccc(C(F)(F)F)cc3)cc(OCCCNCC3CCCO3)c2cc1OC (stereo not given)
A: band 2

Q: Please classify: Cn1cc(-c2cc(N)n3nc(-c4cn(C)c5ccc(F)cc45)cc3n2)c2cc(F)ccc21
A: band 3

Q: Please classify: CN(C)CCCNc1c2ccccc2nc2c1oc1ccc(Cl)cc12
A: band 1

Q: Please classify: Cc1c(NC(=O)CSc2nc3sc4c(c3c(=O)n2-c2ccc(Cl)cc2)CCCC4)c(=O)n(-c2ccccc2)n1C
A: band 3
